system: Echinochloa crus-galli; assay: Test Example 1: herbicidal effect test by soil treatment in paddy field; assay type: in vivo; conditions: 120 g/10a, paddy soil treatment just after sowing, 14 days after treatment
weed suppression rate, Echinochloa crus-galli values, listed per item
Value kind: weed suppression rate, Echinochloa crus-galli

{"Compound": "CC(C)N(C(=O)n1ncn(S(=O)(=O)C2CC2)c1=O)c1ccc(Cl)cc1Br [Compound 1-219]", "Assay target": "Echinochloa crus-galli", "Result": "100%"}
{"Compound": "CC(C)N(C(=O)n1ncn(S(=O)(=O)C2CC2)c1=O)c1ccc(F)cc1F [Compound 1-150]", "Assay target": "Echinochloa crus-galli", "Result": "100%"}
{"Compound": "CC(C)N(C(=O)n1ncn(S(=O)(=O)C2CCCCC2)c1=O)c1ccc(Cl)cc1F [Compound 1-314]", "Assay target": "Echinochloa crus-galli", "Result": "100%"}
{"Compound": "CC(C)N(C(=O)n1ncn(S(=O)(=O)C2CC2)c1=O)c1c(F)cc(F)cc1F [Compound 1-204]", "Assay target": "Echinochloa crus-galli", "Result": "100%"}
{"Compound": "CCN(C)S(=O)(=O)n1cnn(C(=O)N(c2ccc(F)cc2F)C(C)C)c1=O [Compound 1-1139]", "Assay target": "Echinochloa crus-galli", "Result": "100%"}
{"Compound": "CC(C)N(C(=O)n1ncn(S(=O)(=O)C2CCC2)c1=O)c1ccc(F)cc1F [Compound 1-269]", "Assay target": "Echinochloa crus-galli", "Result": "100%"}
{"Compound": "CC(C)N(C(=O)n1ncn(S(=O)(=O)C2CCCCC2)c1=O)c1ccc(F)cc1 [Compound 1-298]", "Assay target": "Echinochloa crus-galli", "Result": "90%"}
{"Compound": "CC(C)N(C(=O)n1ncn(S(=O)(=O)C2CC2)c1=O)c1ccccc1 [Compound 1-168]", "Assay target": "Echinochloa crus-galli", "Result": "90%"}

Data provenance is patent US11076595B2.
